# Activity values compiled below
SYSTEM_UNDER_TEST: Neuropeptide Y receptor type 1 (Homo sapiens) (UniProt P25929)
Sequence (whole entry): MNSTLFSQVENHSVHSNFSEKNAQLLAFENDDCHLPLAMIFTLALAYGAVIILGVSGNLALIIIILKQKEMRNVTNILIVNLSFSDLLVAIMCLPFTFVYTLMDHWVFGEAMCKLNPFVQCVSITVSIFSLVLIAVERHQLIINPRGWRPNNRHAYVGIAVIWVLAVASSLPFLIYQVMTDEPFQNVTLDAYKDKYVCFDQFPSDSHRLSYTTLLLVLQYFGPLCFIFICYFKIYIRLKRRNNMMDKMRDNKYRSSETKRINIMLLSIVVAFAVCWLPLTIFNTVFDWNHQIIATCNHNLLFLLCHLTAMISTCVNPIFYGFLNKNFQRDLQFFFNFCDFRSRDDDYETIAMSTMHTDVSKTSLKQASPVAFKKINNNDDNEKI
EXPERIMENTAL_PROTOCOL: Agonist activity at recombinant human NPY1R assessed as induction of cAMP levels at 10 uM by HTRF assay relative to agonist
Format: functional
MEASURE: Activity (%)

given_smiles=CN(CCCNC(=O)c1ccc(C(F)(F)F)cc1)Cc1ccccc1 system_under_test="Neuropeptide Y receptor type 1 (Homo sapiens) (UniProt P25929)" measure=Activity observed_value=9
given_smiles=CN(CCNC(=O)c1ccc(C#N)cc1)Cc1ccccc1 system_under_test="Neuropeptide Y receptor type 1 (Homo sapiens) (UniProt P25929)" measure=Activity observed_value=4
given_smiles=CN(CCCNC(=O)c1ccc([N+](=O)[O-])cc1)Cc1ccccc1 system_under_test="Neuropeptide Y receptor type 1 (Homo sapiens) (UniProt P25929)" measure=Activity observed_value=1
given_smiles=CN(CCCNC(=O)c1ccc(Cl)cc1)CCc1ccccc1 system_under_test="Neuropeptide Y receptor type 1 (Homo sapiens) (UniProt P25929)" measure=Activity observed_value=-4
given_smiles=CN(CCCNC(=O)c1cccc(Br)c1)Cc1ccccc1 system_under_test="Neuropeptide Y receptor type 1 (Homo sapiens) (UniProt P25929)" measure=Activity observed_value=1
given_smiles=CN(CCCNC(=O)c1ccc(Br)cc1)Cc1ccccc1 system_under_test="Neuropeptide Y receptor type 1 (Homo sapiens) (UniProt P25929)" measure=Activity observed_value=5
given_smiles=CN(CCCNC(=O)c1ccc(Cl)cc1)Cc1ccccc1 system_under_test="Neuropeptide Y receptor type 1 (Homo sapiens) (UniProt P25929)" measure=Activity observed_value=2
given_smiles=CN(CCNC(=O)c1ccc(Cl)cc1)Cc1ccccc1 system_under_test="Neuropeptide Y receptor type 1 (Homo sapiens) (UniProt P25929)" measure=Activity observed_value=-2
given_smiles=COc1cccc(C(=O)NCCCN(C)Cc2ccccc2)c1 system_under_test="Neuropeptide Y receptor type 1 (Homo sapiens) (UniProt P25929)" measure=Activity observed_value=0
given_smiles=COc1ccc(C(=O)NCCCN(C)Cc2ccccc2)cc1 system_under_test="Neuropeptide Y receptor type 1 (Homo sapiens) (UniProt P25929)" measure=Activity observed_value=1
given_smiles=CN(CCNC(=O)c1ccc([N+](=O)[O-])cc1)Cc1ccccc1 system_under_test="Neuropeptide Y receptor type 1 (Homo sapiens) (UniProt P25929)" measure=Activity observed_value=3
given_smiles=CCCc1ccc(C(=O)NCCCN(C)Cc2ccccc2)cc1 system_under_test="Neuropeptide Y receptor type 1 (Homo sapiens) (UniProt P25929)" measure=Activity observed_value=2
